System: IGROV-1
Assay: NCI tumour cell line growth inhibition, 48 h
Active and inactive are the calls of the source. No stated cut-off is given here; in the data, active = GI50 up to about 1.1 µM and inactive = higher.
Permitted responses: True = active, False = inactive

{"columns": ["COMPOUND", "GROUP"],
 "data": [
  ["Cn1cc2ccccc2c1-c1nc(N)nc(F)n1", "False"]
]}

Request: Could you please tell me the result logged for CC1OC(c2ccccc2)=CC(OCc2ccccc2)[C@H]1OCc1ccccc1 (some centres not stated) in this assay?
Response: False

Request: Param item: Cc1cc(C)nc(NS(=O)(=O)c2ccc(NN=c3c4ccccc4n(C)c4ccccc34)cc2)n1
Response: False

====

Items are presented alongside their recorded GI50.
Test system: HOP-92
Test: NCI tumour cell line growth inhibition, 48 h
Activity calls are given as the source filed them. No stated cut-off is given here; in the data, active = GI50 up to about 1.1 µM and inactive = higher.

# example entries with known answers
{"columns": ["COMPOUND_STRING", "MEASURED_QUANTITY", "DATA_VALUE"],
 "data": [
  ["CC(=O)O/C(=C1\\C[C@H]2[C@@H]3CC=C4C[C@@H](OC(C)=O)CC[C@]4(C)[C@H]3CC[C@]2(C)C1=O)C(F)(F)F", "GI50", "8.24 µM (inactive)"],
  ["CC(=O)OCc1nnn2c1CCC2", "GI50", "> 100 µM (inactive)"]
]}

Lab note: next molecule to report on.
Request: For the molecule Cc1ccc(S(=O)(=O)NC(=O)NCCC(=O)O)cc1 , what GI50 is on record?
Response: > 100 µM (inactive)

====

Test system: HT-29
Test: NCI tumour cell line growth inhibition, 48 h
The source made the active and inactive calls. No stated cut-off is given here; in the data, active = GI50 up to about 1.1 µM and inactive = higher.
Items are presented alongside their recorded GI50.

{"columns": ["COMPOUND", "MEASURED_QUANTITY", "DATA_VALUE"],
 "data": [
  ["CC12c3c4cccc3Oc3cc(N)cc(c31)Oc1cc(N)cc(c12)O4", "GI50", "2.01 µM (inactive)"],
  ["CCOC(=O)C(NC(=O)c1ccc(/N=N/N(C)C)cc1)C(C)C (stereo not drawn)", "GI50", "> 100 µM (inactive)"],
  ["CC1=NN(c2ccc(S(=O)(=O)O)cc2)C2(C1)SCC(=O)N2c1nc2ccccc2s1 (stereo not drawn)", "GI50", "> 100 µM (inactive)"],
  ["COC1C(O)CC(OC2CC(OC3CC(O[C@@H]4C(=O)c5c(cc6cc(OC7CC(OC8CC(O)C(O)C(C)O8)C(O)C(C)O7)c(C)c(O)c6c5O)C[C@H]4[C@H](OC)C(=O)[C@@H](O)[C@@H](C)O)OC(C)C3O)OC(C)C2O)OC1C (stereo partly drawn)", "GI50", "< 0.0168 µM (active)"],
  ["Cc1ccc(/N=N/c2c(O)ccc3ccccc23)cc1", "GI50", "> 100 µM (inactive)"],
  ["CCS(=O)(=O)CCn1c(=O)c2c(ncn2C)n(C)c1=O", "GI50", "> 100 µM (inactive)"]
]}

Request: For the compound Cc1ccc([N+](=O)[O-])cc1S(=O)(=O)Nc1ccc(C2=NOC(c3cccs3)C2)cc1 (stereo not drawn) , what GI50 is on record?
Response: 12.5 µM (inactive)

Request: Param item: N#CC1=C(N)Oc2c(ccc3cccnc23)C1c1ccccc1 (stereo not drawn)
Response: 0.339 µM (active)

====

Items are presented alongside their recorded GI50.
System: M19-MEL
Test: NCI tumour cell line growth inhibition, 48 h
The source made the active and inactive calls. Cut-off read from the data, not from the text of the source: active = GI50 up to about 1.1 µM and inactive = higher.

# example entries with known answers
{"columns": ["MOLECULE", "GI50"],
 "data": [
  ["COc1ccc(/C=N/NC(=O)NCCNCCO)cc1", "> 100 µM (inactive)"],
  ["CC(C)(C)c1cc(C(O)(C(F)(F)F)C(F)(F)F)c2c(c1)C(C(F)(F)F)(C(F)(F)F)OC(c1ccccc1)(C(C)(C)C)N2 (configuration not stated)", "3.56 µM (inactive)"],
  ["O=C(Nc1ccc(Sc2ccc(/N=N/c3c(O)c(S(=O)(=O)O)cc4cc(S(=O)(=O)O)ccc34)cc2)cc1)c1ccc(/N=N/c2c(O)c(S(=O)(=O)O)cc3cc(S(=O)(=O)O)ccc23)cc1", "19.5 µM (inactive)"],
  ["Cc1cc(Cl)ccc1NC(=O)CC1SC(NC(=O)c2ccccc2Cl)=NC1=O (configuration not stated)", "19.2 µM (inactive)"],
  ["C=CCCCCCCCCC(=O)O [UNDECYLENIC ACID]", "149 µM (inactive)"],
  ["C=C1C(=O)C23C(O)C1CCC2C12CO[C@]3(O)[C@@H](O)C1C(C)(C)CCC2O (some centres not stated)", "10.7 µM (inactive)"]
]}

Request: For the molecule COc1cc2c(cc1OC)C(Cc1ccc(Oc3cc(CC4c5cc(OC)c(OC)cc5CCN4C)ccc3O)cc1)N(C)CC2 (configuration not stated) , what GI50 is on record?
Response: 21 µM (inactive)

Request: Param item: Clc1ccc(C(c2ccccc2Cl)C(Cl)Cl)cc1 (configuration not stated) [MITOTANE]
Response: 19.7 µM (inactive)

Request: Param item: CCN(CC)CCNc1ccc(CO)c2sc3ccccc3c(=O)c12 [HYCANTHONE]
Response: 13 µM (inactive)

Request: Param item: CCCN1CN(C(C(=O)N[C@@H]2C(=O)N3C(C(=O)O)=C(C)CSC23)c2ccc(O)cc2)CSC1=S (some centres not stated)
Response: > 100 µM (inactive)

Request: Param item: CCOC(=O)[C@H]1Nc2ccc(OC)cc2C2c3ccccc3CC21 (some centres not stated)
Response: > 100 µM (inactive)

Request: Param item: [N-]=[N+]=NC12CC3C4CC5CC3C(C1)C(C5)C4C2
Response: > 100 µM (inactive)

====

System: SNB-19
Assay: NCI tumour cell line growth inhibition, 48 h
Active and inactive are the calls of the source. Cut-off read from the data, not from the text of the source: active = GI50 up to about 1.1 µM and inactive = higher.
MEASURED_QUANTITY: GI50

{"columns": ["MOLECULE", "DATA_VALUE"],
 "data": [
  ["COc1cc(C2c3cc4c(cc3[C@@H](Nc3cccc(O)c3)C3COC(=O)[C@H]23)OCO4)cc(OC)c1O (some centres undefined)", "3.7 µM (inactive)"],
  ["O=C1c2cc(CCl)sc2C(=O)c2ccsc21", "0.225 µM (active)"],
  ["CCCCCCCCCCCCCP(=O)(O)NCC(N)=O", "45.6 µM (inactive)"],
  ["N=C(NNS(=O)(=O)c1ccccc1)Oc1ccc(Br)cc1Br", "> 100 µM (inactive)"],
  ["c1cnc2c(c1)Nc1cnncc1S2", "> 100 µM (inactive)"],
  ["CCN(CC)c1nc(N(C)C)c2ccccc2n1", "39.9 µM (inactive)"],
  ["CC1(C)N=C(N)N=C(N)N1c1cccc(Cl)c1", "> 100 µM (inactive)"],
  ["CC[C@@]1(OC(=O)CCC(=O)O)C(=O)OCc2c1cc1n(c2=O)Cc2cc3ccccc3nc2-1", "0.0519 µM (active)"]
]}

Request: For the molecule CCOC(=O)CC(=O)Nc1cccc2sc3ncccc3c(=O)c12 , what GI50 is on record?
Response: 51.3 µM (inactive)

Request: Param item: CC/C(=N/O)C(C)C(=O)CCC(=O)Nc1ccc(Cl)cc1 (centres undefined)
Response: > 100 µM (inactive)

Request: Param item: COC(=O)CC[N+]1=CCC(c2ccccc2)(c2ccccc2)O1
Response: > 100 µM (inactive)

Request: Param item: N=C(N)Nc1nc2cc(N)ccc2o1
Response: > 100 µM (inactive)

Request: Param item: CCOC(=O)Nc1cc2c(c(N)n1)N=C(c1ccc3ccccc3c1)CN2
Response: 0.0614 µM (active)

====

The compounds below have reported GI50 for HCT-15.
# output: bare number, implied unit µM

# example entries with known answers
{"columns": ["COMPOUND", "SCALE_UNIT", "DATA_VALUE"],
 "data": [
  ["CSc1ncc2c(n1)-c1ccccc1OC2N1CCCCC1 (configuration not stated)", "µM", 28.9],
  ["CC(C)(CN1CCOCC1)C(=O)/C=C/c1ccc(/C=C/C(=O)C(C)(C)CN2CCOCC2)cc1", "µM", 0.297],
  ["O=C1c2c(Br)sc(Br)c2C(=O)C1(O)O", "µM", 27.1],
  ["CC1OC(OC2C(OC(=O)[C@]34CCC(C)(C)C[C@H]3C3=CC[C@@H]5[C@@]6(C)CC[C@H](OC7OC(CO)C(O)C(O)C7OC7OC(CO)C(O)C(O)C7O)C(C)(C)[C@@H]6CC[C@@]5(C)[C@]3(C)CC4)OCC(O)C2O)C(O)C(O)C1OC1OCC(O)C(O)C1O (some centres not stated)", "µM", 15.7]
]}

Request: For the compound CCCCCCCSCC(O)COC(c1ccccc1)(c1ccccc1)c1ccccc1 (configuration not stated) , what GI50 is on record?
Response: 41.6

Request: Param item: C[C@]12CC[C@H]3[C@@H](CC=C4C[C@@H](O)CC[C@@]43C)[C@@H]1C/C(=C\c1cccnc1)[C@@H]2O
Response: 38.1

Request: Param item: COC1OC2=CCC3C(=O)NC(=O)C3C2[C@H](OCc2ccccc2)C1OCc1ccccc1 (some centres not stated)
Response: 1.93

Request: Param item: Clc1ccc(C(c2ccccc2Cl)C(Cl)Cl)cc1 (configuration not stated) [MITOTANE]
Response: 15.8

Request: Param item: COc1cccc(/C=C2\SC(=S)N(/C=C3\C(=O)Oc4ccccc4C3=O)C2=O)c1O
Response: 43.2
